Tested on: hippocampal pyramid cells
Protocol Summary: in-vitro Hippocampus cuts: glucose-induced over-sensitiveness of pyramid cells (population spike)
Format: cell-based, rats
Condition Context: rat Hippocampus cuts, 30 mM glucose, amplitude of population spike; read-out: calculated IC50-value, reduction of glucose-induced over-sensitiveness
Assay Metric: IC50 (µM)
One number for each entry, in µM.

The examples below pair each entry with its known result.
Endpoint output: IC50 of O=C(CCCCC(S)CCS)OC[C@H]1O[C@@H](n2ccc(=O)[nH]c2=O)[C@H](O)[C@@H]1O (stereo partly shown) [Compound 5′] . Value?
5

# input compound: O=C(CCCC[C@H]1CCSS1)OC[C@H]1O[C@@H](n2ccc(=O)[nH]c2=O)[C@H](O)[C@@H]1O [Compound S-5] ; wanted: its IC50
4

# next compound below
Need IC50, item O=C(CCCC[C@@H]1CCSS1)OC[C@H]1O[C@@H](n2ccc(=O)[nH]c2=O)[C@H](O)[C@@H]1O [Compound R-5]
8
